assay: chemical genetic growth profiling, strain panel (AID 1159580);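 further: tested at 20 µM; growth read once vehicle control cultures reached saturation at 30 °C; 1 = growth at the plate median or of vehicle wells; lower values mean less growth of the strain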; conditions: S. cerevisiae deletion strains, growth OD, locus YDR054C, strain cdc34, active compounds read low
About 2,000 (36%) of roughly 5,500 compounds were called active. Roughly 18% stayed inconclusive and do not appear here. Some of the results follow.
# normalized growth listing for each entry below

- COMPOUND: "COc1ccc(CN2CSC(=S)N(Cc3ccc(OC)cc3)C2)cc1"
  normalized growth: 0.961
- COMPOUND: "COc1ccc(/C=C2\\CSc3ccc(F)cc3C2=O)cc1"
  normalized growth: 0.953
- COMPOUND: "Cc1ccc(-c2csc(-c3cccnc3)n2)c(C)c1"
  normalized growth: 0.943
- COMPOUND: "Cc1ccc(/C=C2\\CSc3ccc(F)cc3C2=O)cc1"
  normalized growth: 0.94
- COMPOUND: "Cc1ccc2nc(-c3ccc(Cl)cc3)cn2c1"
  normalized growth: 0.949
- COMPOUND: "Nc1ccccc1SCc1c(Cl)cccc1Cl"
  normalized growth: 0.943
- COMPOUND: "COc1cc(NC(=S)NC(=O)c2ccccc2)c(OC)cc1Cl"
  normalized growth: 0.994
- COMPOUND: "CS(=NC(=O)c1cccc(Cl)c1)c1ccc(OC(=O)c2ccc(Cl)cc2)cc1 (configuration not stated)"
  normalized growth: 0.967
- COMPOUND: "Cc1nn(Cc2cccc(C(=O)Nc3ccc(Cl)cc3)c2)c(C)c1Br"
  normalized growth: 0.975
- COMPOUND: "CC(=O)CSc1nnc(-c2ccc(C(C)(C)C)cc2)n1-c1ccc(Cl)cc1"
  normalized growth: 0.971
- COMPOUND: "N#CC(C#N)=C(SCc1c(Cl)cccc1Cl)SCc1c(Cl)cccc1Cl"
  normalized growth: 0.977
- COMPOUND: "O=C(CSc1nnnn1-c1ccccc1)c1ccccc1"
  normalized growth: 0.908

* * *

assay: chemical genetic growth profiling, strain panel (AID 1159580);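 further: tested at 20 µM; growth read once vehicle control cultures reached saturation at 30 °C; 1 = growth at the plate median or of vehicle wells; lower values mean less growth of the strain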; details: S. cerevisiae deletion strains, growth OD, locus YOR083W, strain WHI5 (second series), active compounds read low
The whole screen tested about 5,500 compounds, of which about 2,000 (36%) were called active. Not shown: some 18% with an inconclusive outcome. The list shows a part of the results.
# normalized growth listing for each entry below
EXPERIMENTAL READOUT: normalized growth

- COMPOUND: "CNC(=O)[C@H]1O[C@@H](n2cnc3c(N)ncnc32)C(O)[C@H]1O (stereo partly specified)"
  EXPERIMENTAL READOUT: "normalized growth"
  RESULT: 1.02
- COMPOUND: "CC1(C(=O)O)C2CCC(O2)C1(C)C(=O)O (stereo unspecified)"
  EXPERIMENTAL READOUT: "normalized growth"
  RESULT: 0.833
- COMPOUND: "COCc1nc2c([nH]1)c(=O)n(C)c(=O)n2CC(C)C"
  EXPERIMENTAL READOUT: "normalized growth"
  RESULT: 1.01
- COMPOUND: "C[C@]12CCC(=O)C=C1CC[C@@H]1[C@@H]2CC[C@]2(C)C(=O)CC[C@@H]12"
  EXPERIMENTAL READOUT: "normalized growth"
  RESULT: 0.924
- COMPOUND: "CC1=C(CC(=O)O)c2cc(F)ccc2/C1=C\\c1ccc(S(C)=O)cc1 (stereo unspecified)"
  EXPERIMENTAL READOUT: "normalized growth"
  RESULT: 1.03
- COMPOUND: "C=CCN1C[C@@H](C)N([C@H](c2ccc(C(=O)N(CC)CC)cc2)c2cccc(OC)c2)C[C@@H]1C"
  EXPERIMENTAL READOUT: "normalized growth"
  RESULT: 1.02
- COMPOUND: "CC(C)OC(=O)C(C)(C)Oc1ccc(C(=O)c2ccc(Cl)cc2)cc1"
  EXPERIMENTAL READOUT: "normalized growth"
  RESULT: 1.12
- COMPOUND: "CCOC(=O)C(C)(C)Oc1ccc(Cl)cc1"
  EXPERIMENTAL READOUT: "normalized growth"
  RESULT: 1.03
- COMPOUND: "CC1=C(CC(=O)O)c2cc(F)ccc2/C1=C\\c1ccc(S(C)(=O)=O)cc1"
  EXPERIMENTAL READOUT: "normalized growth"
  RESULT: 0.973
- COMPOUND: "O=c1onc2cnc3ccccc3n12"
  EXPERIMENTAL READOUT: "normalized growth"
  RESULT: 0.961
- COMPOUND: "Cn1cnc(CCN)c1"
  EXPERIMENTAL READOUT: "normalized growth"
  RESULT: 0.99
